# tested-system: UniProt P28222
# Sequence (P28222 whole entry): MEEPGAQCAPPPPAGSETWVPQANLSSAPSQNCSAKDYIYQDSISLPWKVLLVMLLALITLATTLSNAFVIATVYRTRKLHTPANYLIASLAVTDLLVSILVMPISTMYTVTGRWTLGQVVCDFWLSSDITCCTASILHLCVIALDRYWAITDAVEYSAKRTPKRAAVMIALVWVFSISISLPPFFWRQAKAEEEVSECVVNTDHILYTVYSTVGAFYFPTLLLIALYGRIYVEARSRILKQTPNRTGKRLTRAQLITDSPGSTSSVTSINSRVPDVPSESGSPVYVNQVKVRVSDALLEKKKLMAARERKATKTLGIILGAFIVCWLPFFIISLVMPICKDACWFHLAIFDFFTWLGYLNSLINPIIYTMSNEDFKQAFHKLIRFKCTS
property-name: pKi
Scale: negative log10 of molar concentration, which is what pKi denotes.

// molecule CN1CCC(N2CCc3ccc(NC(=O)c4ccc(F)cc4)cc32)CC1 , assay UniProt P28222, pKi value: 6.36
